target: the molecule itself; assay: SEC; each purified protein alone on Superdex-200 / S-200 (10/300), 100 mM NaCl TET buffer; oligomerization status from the elution volume
Readout: stoichiometry N
Output spec: single numeric token, no unit.

- Protein: "N(1–220), bacterially expressed (domain or fragment, Chandipura virus nucleocapsid protein N, residues 1-220; source: E. coli BL21(DE3) or BL21(DE3)pLysS, purified (anion exchange, MonoQ 5/50 GL)) MSSQVFCISTGQTVSVCLPANEDPVEFPGAFFTPNAKKPTVYIKKETDLSLLRSHVYDGIKDGSVTVSQINSYLYMVLKDIREKPDKNWTSFGVELGKKNEPMGIFDLLNVEDVKGKELDKKGQDTRLPGDDLWLPTLIFGLYRVSRATQVEYKKTLMTNLYAQCKLRTKDAEEIVDETAEFFNAWANDSNFTKIVAAVDMYFHHFKKSDHAPIRFGTIV"
  Reported Value: 4

## Input I would be grateful if you could share the reported stoichiometry N for N(1–390), bacterially expressed (domain or fragment, Chandipura virus nucleocapsid protein N, residues 1-390; source: E. coli BL21(DE3) or BL21(DE3)pLysS, purified (anion exchange, MonoQ 5/50 GL)) MSSQVFCISTGQTVSVCLPANEDPVEFPGAFFTPNAKKPTVYIKKETDLSLLRSHVYDGIKDGSVTVSQINSYLYMVLKDIREKPDKNWTSFGVELGKKNEPMGIFDLLNVEDVKGKELDKKGQDTRLPGDDLWLPTLIFGLYRVSRATQVEYKKTLMTNLYAQCKLRTKDAEEIVDETAEFFNAWANDSNFTKIVAAVDMYFHHFKKSDHAPIRFGTIVSRFKDCAALSTLSHLQKVTGLPIEEVFTWVFNKSVQDDLLRMMTPGQEIDQADSYMPYLIDMGLSTKSPYSSTKNPSFHFWGQLTAFLVKSARAKNALVPVDIAYHELTTAALLFAYAIGRSSELEQRFVLNGKKFTKEKDSREDNDTTPPSERNVVVWLAWWEDIKHEI .
## Output 8

## Input State the recorded stoichiometry N for this entry: MSSQVFCISTGQTVSVCLPANEDPVEFPGAFFTPNAKKPTVYIKKET (domain or fragment, Chandipura virus nucleocapsid protein N, residues 1-47; source: E. coli BL21(DE3) or BL21(DE3)pLysS, purified (anion exchange, MonoQ 5/50 GL)) [N(1–47), bacterially expressed]
## Output 3

## Input I am curious: what stoichiometry N value has been reported for N(1–320), bacterially expressed (domain or fragment, Chandipura virus nucleocapsid protein N, residues 1-320; also called N(1–320)^0 (monomer after DOC treatment); source: E. coli BL21(DE3) or BL21(DE3)pLysS, purified (anion exchange, MonoQ 5/50 GL)) MSSQVFCISTGQTVSVCLPANEDPVEFPGAFFTPNAKKPTVYIKKETDLSLLRSHVYDGIKDGSVTVSQINSYLYMVLKDIREKPDKNWTSFGVELGKKNEPMGIFDLLNVEDVKGKELDKKGQDTRLPGDDLWLPTLIFGLYRVSRATQVEYKKTLMTNLYAQCKLRTKDAEEIVDETAEFFNAWANDSNFTKIVAAVDMYFHHFKKSDHAPIRFGTIVSRFKDCAALSTLSHLQKVTGLPIEEVFTWVFNKSVQDDLLRMMTPGQEIDQADSYMPYLIDMGLSTKSPYSSTKNPSFHFWGQLTAFLVKSARAKNALVP ?
## Output 8

## Input Recorded stoichiometry N for N(1/180–265/422), bacterially expressed (domain or fragment, also called middle deletant; source: E. coli BL21(DE3) or BL21(DE3)pLysS, purified (anion exchange, MonoQ 5/50 GL)) MSSQVFCISTGQTVSVCLPANEDPVEFPGAFFTPNAKKPTVYIKKETDLSLLRSHVYDGIKDGSVTVSQINSYLYMVLKDIREKPDKNWTSFGVELGKKNEPMGIFDLLNVEDVKGKELDKKGQDTRLPGDDLWLPTLIFGLYRVSRATQVEYKKTLMTNLYAQCKLRTKDAEEIVDETAPGQEIDQADSYMPYLIDMGLSTKSPYSSTKNPSFHFWGQLTAFLVKSARAKNALVPVDIAYHELTTAALLFAYAIGRSSELEQRFVLNGKKFTKEKDSREDNDTTPPSERNVVVWLAWWEDIKHEITPDMKAFAKRAVERVGDIRVNSVAEYARKLFA , please?
## Output 3
